# Test system: Stat3
# method_notes: Western blot of Stat3 expression in KF48 infected with retroviral Stat3 siRNAs
# Assay type: cell-based, human
# recorded_conditions: KF48 infected with retrovirus expressing Stat3 siRNAs
readout_label: inhibition of Stat3 expression

INSERT INTO results (substance, tested_on, val) VALUES
  ('Stat3 siRNA 2: siRNA target nt. 1264-1283 of STAT 3, GGCGTCCAGTTCACTACTA, hairpin primers SEQ ID 6 and 7, retroviral vector', 'Stat3', 'inhibit Stat3 expression'),
  ('Stat3 siRNA 4: siRNA target nt. 1662-1681 of STAT 3, GCGTCCATCCTGTGGTACA, hairpin primers SEQ ID 8 and 9, retroviral vector', 'Stat3', 'inhibit Stat3 expression'),
  ('Stat3 siRNA 1: siRNA target nt. 461-480 of STAT 3 (NM—139276), AGTCGAATGTTCTCTATCA, hairpin primers SEQ ID 4 and 5, retroviral vector', 'Stat3', 'inhibit Stat3 expression');
